- TARGET ENTITY: 5-hydroxytryptamine receptor 7 (Homo sapiens, UniProt P34969)
- Sequence (P34969 whole entry): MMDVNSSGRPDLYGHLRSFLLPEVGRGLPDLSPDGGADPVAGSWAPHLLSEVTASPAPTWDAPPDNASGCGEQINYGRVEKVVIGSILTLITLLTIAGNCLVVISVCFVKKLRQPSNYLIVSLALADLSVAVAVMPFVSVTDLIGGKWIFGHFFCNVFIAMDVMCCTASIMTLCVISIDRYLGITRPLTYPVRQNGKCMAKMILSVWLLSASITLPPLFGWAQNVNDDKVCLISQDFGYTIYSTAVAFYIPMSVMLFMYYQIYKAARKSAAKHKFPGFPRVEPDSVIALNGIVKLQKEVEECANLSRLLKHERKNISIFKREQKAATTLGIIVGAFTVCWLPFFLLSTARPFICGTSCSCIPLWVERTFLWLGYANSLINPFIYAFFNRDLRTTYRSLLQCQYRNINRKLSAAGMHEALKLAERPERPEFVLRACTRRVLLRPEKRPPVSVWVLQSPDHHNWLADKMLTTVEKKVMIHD
- ASSAY DETAILS: Displacement of [3H]LSD from human recombinant 5-HT7 receptor expressed in HEK cell membranes by radioligand binding assay
EXPERIMENTAL ENDPOINT: pKi
Answers are plain numbers, as −log10 of the molar value.

INSERT INTO results (molecule, recorded_number) VALUES
  ('COc1cc2c(cc1OC1CCCCC1)C[C@H]1c3c(cc(OC)c(OC)c3-2)CCN1C', 7.30),
  ('CCCC(C)Oc1cc2c(cc1OC)-c1c(OC)c(OC)cc3c1[C@H](C2)N(C)CC3 (some centres undefined)', 7.62),
  ('CCOc1cc2c(cc1OC)-c1c(OC)c(OC)cc3c1[C@H](C2)N(C)CC3', 7.16),
  ('COc1cc2c(cc1OCc1ccccc1)C[C@H]1c3c(cc(OC)c(OC)c3-2)CCN1C', 7.64),
  ('CCCCCCOc1cc2c(cc1OC)-c1c(OC)c(OC)cc3c1[C@H](C2)N(C)CC3', 7.24),
  ('COc1cc2c(cc1OCC1CC1)C[C@H]1c3c(cc(OC)c(OC)c3-2)CCN1C', 7.66),
  ('CCCCCOc1cc2c(cc1OC)-c1c(OC)c(OC)cc3c1[C@H](C2)N(C)CC3', 7.62),
  ('C=CCOc1cc2c(cc1OC)-c1c(OC)c(OC)cc3c1[C@H](C2)N(C)CC3', 7.70);

Proceed to the following item.
Data point: COc1cc2c(cc1OCCF)C[C@H]1c3c(cc(OC)c(OC)c3-2)CCN1C ; pKi = 7.28

The origin of these recorded values is ChEMBL document CHEMBL3580564.
